target-desc: UBE2G1
assay-protocol: reporter assay of Huesken 2005
measurement-setup: siRNA
Oligonucleotides are written 5' to 3', each unit as a sugar letter and its base; * is a phosphorothioate linkage, no mark a phosphodiester; rarer units and linkages stand in square brackets, end groups in braces. Plain capitals give the bases only. d = 2'-deoxy (DNA); r = 2'-OH (RNA)
metric-name: normalised inhibition (eCFP-eYFP dual reporter) (%)

- substance: "sense rCrCrUrArArArArUrGrArArArUrUrCrArUrUrAdTdT / antisense rUrArArUrGrArArUrUrUrCrArUrUrUrUrArGrGdAdG"
  unit-annotation: "%"
  numeric-result: 69.6
- substance: "sense rCrUrArArUrGrGrArGrArCrUrCrArCrCrUrGrCdTdT / antisense rGrCrArGrGrUrGrArGrUrCrUrCrCrArUrUrArGdGdG"
  unit-annotation: "%"
  numeric-result: 71.9
- substance: "sense rGrGrArArGrUrCrCrUrUrArUrUrArUrUrGrGrCdTdT / antisense rGrCrCrArArUrArArUrArArGrGrArCrUrUrCrCdCdA"
  unit-annotation: "%"
  numeric-result: 71

---

target-desc: UBE2L3
assay-protocol: reporter assay of Huesken 2005
measurement-setup: siRNA
Oligonucleotides are written 5' to 3', each unit as a sugar letter and its base; * is a phosphorothioate linkage, no mark a phosphodiester; rarer units and linkages stand in square brackets, end groups in braces. Plain capitals give the bases only. d = 2'-deoxy (DNA); r = 2'-OH (RNA)
Measured normalised inhibition (eCFP-eYFP dual reporter) of individual entries
metric-name: normalised inhibition (eCFP-eYFP dual reporter) (%)

- substance: "sense rCrArGrGrUrUrGrArUrGrArArGrCrUrArArUrUdTdT / antisense rArArUrUrArGrCrUrUrCrArUrCrArArCrCrUrGdGdA"
  target-desc: "UBE2L3"
  numeric-result: 96.7
- substance: "sense rArCrArUrCrGrArCrGrArArArArGrGrGrGrCrAdTdT / antisense rUrGrCrCrCrCrUrUrUrUrCrGrUrCrGrArUrGrUdTdT"
  target-desc: "UBE2L3"
  numeric-result: 64.5
- substance: "sense rArGrArUrCrUrArUrCrArCrCrCrArArArCrArUdTdT / antisense rArUrGrUrUrUrGrGrGrUrGrArUrArGrArUrCrUdTdT"
  target-desc: "UBE2L3"
  numeric-result: 73.1

---

target-desc: MRFAP1
assay-protocol: reporter assay of Huesken 2005
measurement-setup: siRNA
Oligonucleotides are written 5' to 3', each unit as a sugar letter and its base; * is a phosphorothioate linkage, no mark a phosphodiester; rarer units and linkages stand in square brackets, end groups in braces. Plain capitals give the bases only. d = 2'-deoxy (DNA); r = 2'-OH (RNA)
Lab note: compare normalised inhibition (eCFP-eYFP dual reporter) against 70%. Equal or greater, write Condition met. Smaller, write Condition not met.

- substance: "sense rUrGrCrArGrCrUrCrGrUrGrCrGrGrCrGrGrArUdTdT / antisense rArUrCrCrGrCrCrGrCrArCrGrArGrCrUrGrCrAdCdC"
  assigned-label: "Condition not met"
- substance: "sense rUrArCrGrUrUrUrCrUrGrCrUrArUrGrGrUrCrUdTdT / antisense rArGrArCrCrArUrArGrCrArGrArArArCrGrUrAdGdT"
  assigned-label: "Condition not met"
- substance: "sense rArUrGrGrCrGrArArGrArUrGrGrCrCrGrArGrAdTdT / antisense rUrCrUrCrGrGrCrCrArUrCrUrUrCrGrCrCrArUdCdT"
  assigned-label: "Condition met"
- substance: "sense rCrUrArUrUrArUrArArCrCrUrGrCrCrUrGrArUdTdT / antisense rArUrCrArGrGrCrArGrGrUrUrArUrArArUrArGdAdT"
  assigned-label: "Condition met"
- substance: "sense rCrArUrArUrGrUrArGrUrCrArArGrCrUrArUrAdTdT / antisense rUrArUrArGrCrUrUrGrArCrUrArCrArUrArUrGdAdA"
  assigned-label: "Condition met"
- substance: "sense rUrGrCrArGrCrArArUrGrGrCrArGrArArGrArAdTdT / antisense rUrUrCrUrUrCrUrGrCrCrArUrUrGrCrUrGrCrAdTdG"
  assigned-label: "Condition met"
